# GI50 values compiled below
assayDetails: Antiproliferative activity against human KB-VIN cells assessed as inhibition of cell growth measured after 72 hrs by SRB assay
Assay type: functional
experimentalConditions: KBVIN
API: value field is a number in µM; no unit string.

CNC(=O)CCc1ccncc1-c1ccc2ccccc2c1 :: 7.47

// next entry
Query: Param item = CNC(=O)/C=C/c1ccncc1-c1ccc2cc[nH]c2c1 ; retrieve measured GI50.
Result: 10.9

###

assayDetails: MRT (0 to 24h) in ICR mouse at 150 mg/kg, po measured after 24 hrs by LC-MS/MS analysis
Format: ADME, organism-based
experimentalConditions: in vivo
parameter: MRT last at 24 h

Query: What value of MRT last at 24 h has been reported for the following compound? COC(=O)/C=C/c1ccncc1-c1ccc2ccccc2c1
Result: 2.68 h

###

# inhibition values compiled below
experimentalTarget: CDK8/Cyclin C (Homo sapiens) (UniProt P49336+P24863)
assayDetails: Inhibition of CDK8/Cyclin C (unknown origin) at 10 uM measured after 1 hr by plate reader assay relative to control
Format: protein-complex assay
Form entry: value (%) — number only.

COC1CN(C(=O)/C=C/c2ccncc2-c2ccc(F)cc2)C1 :: 77
CNC(=O)/C=C/c1ccncc1-c1ccc2cc[nH]c2c1 :: 103
Cn1ncc2ccc(-c3cnccc3/C=C/C(=O)N3CCOCC3)cc21 :: 89
O=C(/C=C/c1ccncc1-c1ccc2ncccc2c1)N1CCOCC1 :: 80

Now for the molecule whose inhibition we want.
Query: Item under review: COc1ccc(-c2cnccc2/C=C/C(=O)N2CC(OC)C2)cc1OC . Reported inhibition?
Result: 87

###

experimentalTarget: CDK8/Cyclin C (Homo sapiens, UniProt P49336)
Sequence (P49336 whole entry): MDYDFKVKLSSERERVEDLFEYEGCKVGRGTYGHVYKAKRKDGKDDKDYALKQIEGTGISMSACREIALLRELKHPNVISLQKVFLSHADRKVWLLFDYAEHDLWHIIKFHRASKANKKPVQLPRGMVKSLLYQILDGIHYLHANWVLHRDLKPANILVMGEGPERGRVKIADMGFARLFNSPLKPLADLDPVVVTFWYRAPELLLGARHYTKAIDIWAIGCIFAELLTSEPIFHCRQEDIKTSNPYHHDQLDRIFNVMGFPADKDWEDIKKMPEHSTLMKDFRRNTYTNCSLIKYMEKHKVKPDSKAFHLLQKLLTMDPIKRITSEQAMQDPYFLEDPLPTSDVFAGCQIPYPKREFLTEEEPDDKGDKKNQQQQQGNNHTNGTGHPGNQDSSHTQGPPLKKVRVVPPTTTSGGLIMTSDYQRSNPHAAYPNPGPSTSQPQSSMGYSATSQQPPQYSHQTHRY
Sequence (P24863 whole entry, further chain): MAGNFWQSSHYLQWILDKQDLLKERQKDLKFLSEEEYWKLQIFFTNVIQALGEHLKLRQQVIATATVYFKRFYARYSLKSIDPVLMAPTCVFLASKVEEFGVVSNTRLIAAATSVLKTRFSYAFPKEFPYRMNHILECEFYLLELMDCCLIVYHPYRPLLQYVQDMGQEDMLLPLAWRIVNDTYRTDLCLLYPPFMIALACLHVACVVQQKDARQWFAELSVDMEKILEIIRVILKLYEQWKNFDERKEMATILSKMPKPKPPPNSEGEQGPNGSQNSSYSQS
assayDetails: Inhibition of CDK8/Cyclin C (unknown origin) measured after 1 hr by plate reader assay
parameter: IC50 (nM)
Expressed in nM, but write only the number.

Cn1ncc2cc(-c3cnccc3/C=C/C(=O)O)ccc21 :: 34.6
CCOC(=O)/C=C/c1ccncc1-c1ccc2ccccc2c1 :: 53.3
COC1CN(C(=O)/C=C/c2ccncc2-c2ccc3[nH]ncc3c2)C1 :: 146
CNC(=O)CCc1ccncc1-c1ccc2ccccc2c1 :: 21.1
COC(=O)/C=C/c1ccncc1-c1ccc2ccccc2c1 :: 40.6
CNC(=O)/C=C/c1ccncc1-c1ccc2[nH]ccc2c1 :: 51.9

Query: Query (compound): CCOC(=O)/C=C/c1ccncc1-c1ccc2cc[nH]c2c1 ; field requested: IC50
Result: 12.1

Query: # lookup: IC50 of CCOC(=O)/C=C/c1ccncc1-c1ccc2[nH]ccc2c1
Result: 107

Query: Report IC50 for CNC(=O)/C=C/c1ccncc1-c1ccc2cccnc2c1 please.
Result: 1760

Query: Can you look up the measured IC50 of COC1CN(C(=O)/C=C/c2ccncc2-c2ccc3ccccc3c2)C1 for me?
Result: 42.8

###

experimentalTarget: CDK8/Cyclin C (Homo sapiens) (UniProt P49336+P24863)
assayDetails: Inhibition of CDK8/Cyclin C (unknown origin) at 10 uM measured after 1 hr by plate reader assay relative to control
Assay type: protein-complex assay
parameter: inhibition
Be sure to follow the number with its unit.

Use these answered entries as a reference point.
Cn1ncc2cc(-c3cnccc3/C=C/C(=O)O)ccc21 :: 102%
CN(C)C(=O)/C=C/c1ccncc1-c1ccc2ccccc2c1 :: 100%
CC(C)[C@@H](NC(=O)/C=C/c1ccncc1-c1ccc2ccccc2c1)C(=O)O :: 77%
O=C(O)/C=C/c1ccncc1-c1ccc2ccccc2c1 :: 102%
CCOC(=O)/C=C/c1ccncc1-c1ccc2c(cnn2C)c1 :: 100%

// next item, inhibition requested
Query: Value lookup for inhibition; key = CNC(=O)/C=C/c1ccncc1-c1ccc2[nH]ccc2c1
Result: 100%
